Biological target: JNK3 (Homo sapiens, UniProt P53779)
Construct: One such construct encodes amino acid residues Ser40-Glu402 of JNK3α1 and is preceded by Met and Gly residues; Met-Gly (initiation methionine plus glycine added for the NcoI site)
Sequence (P53779 40-402): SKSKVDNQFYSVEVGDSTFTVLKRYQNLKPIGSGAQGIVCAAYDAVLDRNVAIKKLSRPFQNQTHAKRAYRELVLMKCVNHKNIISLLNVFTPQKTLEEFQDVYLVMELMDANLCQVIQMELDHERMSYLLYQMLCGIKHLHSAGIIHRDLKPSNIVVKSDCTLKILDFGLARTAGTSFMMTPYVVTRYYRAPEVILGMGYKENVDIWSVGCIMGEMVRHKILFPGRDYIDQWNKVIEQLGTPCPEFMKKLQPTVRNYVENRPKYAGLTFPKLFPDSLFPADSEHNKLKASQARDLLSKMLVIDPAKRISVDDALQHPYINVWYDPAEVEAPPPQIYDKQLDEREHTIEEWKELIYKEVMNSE
Test: JNK inhibition assay: spectrophotometric coupled-enzyme assay with activated JNK3
Conditions: activated JNK3 10 nM, 10 μM ATP, 200 μM EGF receptor peptide, 30° C., competitive inhibition model
Metric name: Ki

[
  {
    "Molecule": "O=C(O)c1ccc(-c2ccc3c(c2)N(Cc2cc(F)cc4c2OCOC4)C(=O)/C3=N\\O)cc1",
    "Metric name": "Ki",
    "Endpoint result": "< 1000 nM"
  },
  {
    "Molecule": "O=C1/C(=N\\O)c2ccc(-c3ccccc3C(F)(F)F)cc2N1Cc1cc(F)cc2c1OCOC2",
    "Metric name": "Ki",
    "Endpoint result": "≥ 1000 nM"
  },
  {
    "Molecule": "N#Cc1ccccc1CN1C(=O)/C(=N\\O)c2cc(F)ccc21",
    "Metric name": "Ki",
    "Endpoint result": "≥ 1000 nM"
  },
  {
    "Molecule": "CN1CCCC1CCNC(=O)c1ccc2c(c1)N(Cc1cc(F)cc3c1OCOC3)C(=O)/C2=N\\O (stereo not drawn)",
    "Metric name": "Ki",
    "Endpoint result": "≥ 1000 nM"
  },
  {
    "Molecule": "O=C1/C(=N\\O)c2ccc(-c3ccccc3)cc2N1Cc1ccccc1-c1ccccc1",
    "Metric name": "Ki",
    "Endpoint result": "≥ 1000 nM"
  }
]

Ask: Reported Ki, molecule Cc1ccc2c(c1)/C(=N/O)C(=O)N2Cc1ccc([N+](=O)[O-])cc1 : ____
Reply: ≥ 1000 nM

Ask: Reported Ki, molecule COc1ccc(S(=O)(=O)Nc2ccc3c(c2)N(Cc2cc(F)cc4c2OCOC4)C(=O)/C3=N\O)cc1 : ____
Reply: ≥ 1000 nM

Ask: Reported Ki, molecule O=C1/C(=N\O)c2cc(F)ccc2N1Cc1cccc([N+](=O)[O-])c1 : ____
Reply: ≥ 1000 nM

Ask: Reported Ki, molecule CCCC(=O)Nc1ccc2c(c1)N(Cc1cc(F)cc3c1OCOC3)C(=O)/C2=N\O : ____
Reply: < 1000 nM

Ask: Reported Ki, molecule O=C1/C(=N\O)c2ccccc2N1Cc1ccc([N+](=O)[O-])cc1 : ____
Reply: ≥ 1000 nM

Ask: Reported Ki, molecule COc1ccc(CN2C(=O)/C(=N\O)c3cc(Cl)ccc32)cc1 : ____
Reply: ≥ 1000 nM

* * *

Reported values of Ki for individual entries
Target: JNK3 (Homo sapiens, UniProt P53779)
Construct: One such construct encodes amino acid residues Ser40-Glu402 of JNK3α1 and is preceded by Met and Gly residues; Met-Gly (initiation methionine plus glycine added for the NcoI site)
Test: JNK inhibition assay: spectrophotometric coupled-enzyme assay with activated JNK3
Conditions: activated JNK3 10 nM, 10 μM ATP, 200 μM EGF receptor peptide, 30° C., competitive inhibition model

Below, 5 compounds whose answers are already recorded.
[
  {
    "Line notation": "COc1cccc(-c2ccc3c(c2)N(Cc2cc(=O)oc4cc(OC)ccc24)C(=O)/C3=N\\O)c1",
    "System tested": "JNK3 (Homo sapiens, UniProt P53779)",
    "Metric name": "Ki",
    "Endpoint result": "≥ 1 µM"
  },
  {
    "Line notation": "Cc1ccc(CN2C(=O)/C(=N\\O)c3cc([N+](=O)[O-])ccc32)cc1",
    "System tested": "JNK3 (Homo sapiens, UniProt P53779)",
    "Metric name": "Ki",
    "Endpoint result": "≥ 1 µM"
  },
  {
    "Line notation": "O=C(Nc1ccc2c(c1)N(Cc1cc(F)cc3c1OCOC3)C(=O)/C2=N\\O)c1cc2ccccc2o1",
    "System tested": "JNK3 (Homo sapiens, UniProt P53779)",
    "Metric name": "Ki",
    "Endpoint result": "< 1 µM"
  },
  {
    "Line notation": "O=C1/C(=N\\O)c2cc(F)ccc2N1Cc1cccc(Oc2ccccc2)c1",
    "System tested": "JNK3 (Homo sapiens, UniProt P53779)",
    "Metric name": "Ki",
    "Endpoint result": "≥ 1 µM"
  },
  {
    "Line notation": "COc1cc(CN2C(=O)/C(=N\\O)c3ccc(C)cc32)cc(OC)c1",
    "System tested": "JNK3 (Homo sapiens, UniProt P53779)",
    "Metric name": "Ki",
    "Endpoint result": "< 1 µM"
  }
]

Ask: Reported Ki, compound CCOC(=O)C(=O)Nc1ccc2c(c1)N(Cc1cc(F)cc3c1OCOC3)C(=O)/C2=N\O : ____
Reply: < 1 µM

Ask: Reported Ki, compound CC(C)CNc1ccc2c(c1)/C(=N/O)C(=O)N2Cc1cc(F)cc2c1OCOC2 : ____
Reply: ≥ 1 µM
